- assay overview: protein stability index of a GFP-peptide fusion (GPS, HEK-293T) (PSI 1-6); higher = more stable;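 also: 24-mer peptide tiles fused after GFP, lentivirally expressed, FACS-sorted into six equal bins by GFP/DsRed ratio, decoded by Illumina sequencing, PSI is the read-weighted mean bin number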
- experimental parameters: treatment: MLN4924 1 uM, 8 h; c terminus: a fixed tail appended
Output Criterion met for protein stability index not less than 4; output Criterion not met otherwise.

# check: protein stability index of FLVRLLMAMAVMLYYSNFVLALEE [MFSD9] is greater than or equal to 4
Criterion not met

# check: protein stability index of QTYFRQNRDEVLDNLLAFVCDIRP [ATP6V1G1] is greater than or equal to 4
Criterion not met

# check: protein stability index of AWEKLLAAFPNLANLSRTQLLHLG [KLHDC10] is greater than or equal to 4
Criterion not met

# check: protein stability index of LPQEHSQIYHCTKRKEEECSTTDH [TBX5] is greater than or equal to 4
Criterion met

# check: protein stability index of CTDCGKSFNHNAHLTVHKRIHTGE [ZNF8] is greater than or equal to 4
Criterion met

# check: protein stability index of RPDRSSQGGSLPSEEKGHPQEESE [CHGB] is greater than or equal to 4
Criterion met

# check: protein stability index of ATKFKQLYRSRMNSLEMTPAVRQR [HMOX1] is greater than or equal to 4
Criterion not met

# check: protein stability index of DTCPEVGFFDVLGNDRRREWAALG [ACBD3] is greater than or equal to 4
Criterion not met

# check: protein stability index of GTAPLNQETAEFFLSLDIPIGELY [ACSBG2] is greater than or equal to 4
Criterion not met

# check: protein stability index of QGEEVAQRSTVFKTTIPEEEEEEE [LMNB1] is greater than or equal to 4
Criterion met

# check: protein stability index of EIAQYLLEKGADVNRKSVKGNTAL [FEM1C] is greater than or equal to 4
Criterion not met

# check: protein stability index of AGIVRVFSGTPPPPVLSFRLVHTT [FCHO1] is greater than or equal to 4
Criterion not met

# check: protein stability index of QEIEDKMKGFSFKEDTLLLIAEVM [C8orf76] is greater than or equal to 4
Criterion not met

# check: protein stability index of LRQQQHKQNKQVLGYCLLLMLAGM [DNAJC4] is greater than or equal to 4
Criterion not met

# check: protein stability index of DILVLLGASLYAISNVCEEYIVKK [SLC35F2] is greater than or equal to 4
Criterion not met

# check: protein stability index of DMTFEEEAQLLQLKVKCLNNLAAS [FKBP8] is greater than or equal to 4
Criterion not met

# check: protein stability index of TAYWALAGSIGGLFFAVGIAQYAL [SLC22A15] is greater than or equal to 4
Criterion not met

# check: protein stability index of PCASLLAFASTCLLSRFSVGIFHL [TMEM175] is greater than or equal to 4
Criterion not met

# check: protein stability index of PDARPHRRPHELLPVGGRLPGPTR [HAGHL] is greater than or equal to 4
Criterion met

# check: protein stability index of EILLHPWFESVLEPGYIDSEIGTS [TRIB1] is greater than or equal to 4
Criterion not met

# check: protein stability index of AEFQSLFSLLEELKEGMLMKIKQD [FSD1] is greater than or equal to 4
Criterion not met

# check: protein stability index of YALDMQQSNLEPLSPMTASSFLSF [FEM1A] is greater than or equal to 4
Criterion not met

# check: protein stability index of RQNDILQVVSQGWKYFKGNFYYFS [CD207] is greater than or equal to 4
Criterion not met

# check: protein stability index of RMKEPSSPPPAPTSSTFGLQDGNL [CHCHD6] is greater than or equal to 4
Criterion met

# check: protein stability index of KDGVADSTVISSMPCLLMELRRDS [C18orf25] is greater than or equal to 4
Criterion not met

# check: protein stability index of RLFTVNDVKVGGSKYGIINLQSLK [DCAF4] is greater than or equal to 4
Criterion not met

# check: protein stability index of EVKIRDWHLKQSPASPERDYSPYY [KRT13] is greater than or equal to 4
Criterion not met

# check: protein stability index of QAIVTEDKTDISSGRARQQDEEML [MLH1] is greater than or equal to 4
Criterion met

# check: protein stability index of TSQKIAARAFAQRYLADLLPSVFG [RSPH3] is greater than or equal to 4
Criterion not met

# check: protein stability index of LIPQPLDSEEDEKMEEDIKEEEEK [PCMTD1] is greater than or equal to 4
Criterion met

# check: protein stability index of VRFLEQQNAALRGELSQARGQEPA [PRPH] is greater than or equal to 4
Criterion met

# check: protein stability index of SQIETLTSVFQKKLCTAHMCSTLE [MATN2] is greater than or equal to 4
Criterion not met

# check: protein stability index of EFDSEHNLTSNEGHSLKNLEHRLN [RASAL3] is greater than or equal to 4
Criterion met

# check: protein stability index of IVIWGVLTQKKPFADEKNILHIMV [RIPK4] is greater than or equal to 4
Criterion not met

# check: protein stability index of TLQELLARDTVQVELIPEKKGLFL [SNX8] is greater than or equal to 4
Criterion not met

# check: protein stability index of QLLEQKQAYWAQAEDTAAPAEESK [CBY2] is greater than or equal to 4
Criterion met

# check: protein stability index of LEPPTMRKKRLLDRKVLLKSDSPT [GOLPH3L] is greater than or equal to 4
Criterion met

# check: protein stability index of LLKRMESLKLKSSHHSKHKAPSKL [DLC1] is greater than or equal to 4
Criterion not met

# check: protein stability index of STQTKKLSASSPRMLHRSTQTTND [ZMYND11] is greater than or equal to 4
Criterion met

# check: protein stability index of FSLLEELKEGMLMKIKQDRASRTY [FSD1] is greater than or equal to 4
Criterion not met

# check: protein stability index of GVIAAIVQLHNGTKYKKFPHWLDK [STEAP1] is greater than or equal to 4
Criterion not met

# check: protein stability index of FPNIASATKFKQLYRSRMNSLEMT [HMOX1] is greater than or equal to 4
Criterion not met

# check: protein stability index of LSEKEINAREESLVEELSPASEKK [BCL2L13] is greater than or equal to 4
Criterion met

# check: protein stability index of LPECLEYEEEFDYETESETESEIE [GNAS] is greater than or equal to 4
Criterion met

# check: protein stability index of MPPATGGGLAESELRPRRGRCGPQ [POMT2] is greater than or equal to 4
Criterion met

# check: protein stability index of DLVAMQWADAAGEAVPEGPDGGGP [ZSWIM9] is greater than or equal to 4
Criterion met

# check: protein stability index of GSRHPTLVLPLVPELLSTHPFFDT [INTS4] is greater than or equal to 4
Criterion not met

# check: protein stability index of IMVGFILYCSTPTRTAEPAESSVP [SLC35F2] is greater than or equal to 4
Criterion not met

# check: protein stability index of RGQCLLYNWEEERATNHLDQVPSM [SPAG8] is greater than or equal to 4
Criterion not met

# check: protein stability index of LGRSHDTVQEAATSRRARASKKTA [MFSD9] is greater than or equal to 4
Criterion met

# check: protein stability index of SKAKKLVCNINKGCGYGCQLHHVV [FUT8] is greater than or equal to 4
Criterion not met
